Hello, the source for this data is ChEMBL document CHEMBL1781932, in case you need it.

# Tested on: Klebsiella pneumoniae
# assay protocol: Antimicrobial activity against tetracycline-resistant Klebsiella pneumoniae isolate 153 harboring tetA gene by CLSI dilution method
# Format: functional
endpoint name: MIC

* CCCNc1c2c(c(O)c3cc(CN4CCC4)ccc13)C(=O)C1=C(O)[C@]3(O)C(=O)C(C(N)=O)=C(O)[C@@H](N(C)C)[C@@H]3C[C@@H]1C2 | > 32 mg/L
* CNCc1ccc2cc3c(c(O)c2c1)C(=O)C1=C(O)[C@]2(O)C(=O)C(C(N)=O)=C(O)[C@@H](N(C)C)[C@@H]2C[C@@H]1C3 | 8 mg/L
* CNC(=O)Oc1c2c(c(O)c3cc(CN4CCC4)ccc13)C(=O)C1=C(O)[C@]3(O)C(=O)C(C(N)=O)=C(O)[C@@H](N(C)C)[C@@H]3C[C@@H]1C2 | > 32 mg/L

====

# reported MIC; entries follow
# System: Enterococcus faecalis
# assay protocol: Antimicrobial activity against tetracycline-resistant Enterococcus faecalis isolate 159 harboring […] gene by CLSI dilution method
# Type: functional
endpoint name: MIC (µg/mL)

• CNc1c2c(c(O)c3cc(CN4CCC4)ccc13)C(=O)C1=C(O)[C@]3(O)C(=O)C(C(N)=O)=C(O)[C@@H](N(C)C)[C@@H]3C[C@@H]1C2 = 8
• CN(C)[C@@H]1C(O)=C(C(N)=O)C(=O)[C@@]2(O)C(O)=C3C(=O)c4c(cc5ccc(CN6CC(O)C6)cc5c4O)C[C@H]3C[C@@H]12 = 4
• CN(C)c1ccc(O)c2c1C[C@H]1C[C@H]3[C@H](N(C)C)C(O)=C(C(N)=O)C(=O)[C@@]3(O)C(O)=C1C2=O = 16
• CN(C)[C@@H]1C(O)=C(C(N)=O)C(=O)[C@@]2(O)C(O)=C3C(=O)c4c(cc5ccc(-c6cccnc6)cc5c4O)C[C@H]3C[C@@H]12 = 0.25
• COc1c2c(c(O)c3cc(CN4CC(F)C4)ccc13)C(=O)C1=C(O)[C@]3(O)C(=O)C(C(N)=O)=C(O)[C@@H](N(C)C)[C@@H]3C[C@@H]1C2 = 2
• COc1c2c(c(O)c3cc(CN4CCCC4)ccc13)C(=O)C1=C(O)[C@]3(O)C(=O)C(C(N)=O)=C(O)[C@@H](N(C)C)[C@@H]3C[C@@H]1C2 = 4
• CC(=O)NC1CN(Cc2ccc3cc4c(c(O)c3c2)C(=O)C2=C(O)[C@]3(O)C(=O)C(C(N)=O)=C(O)[C@@H](N(C)C)[C@@H]3C[C@@H]2C4)C1 = 16
• CN(C)[C@@H]1C(O)=C(C(N)=O)C(=O)[C@@]2(O)C(O)=C3C(=O)c4c(c(Cl)c5ccc(F)cc5c4O)C[C@H]3C[C@@H]12 = 2
• CN(C)[C@@H]1C(O)=C(C(N)=O)C(=O)[C@@]2(O)C(O)=C3C(=O)c4c(cc5ccc(CN6CCCCC6)cc5c4O)C[C@H]3C[C@@H]12 = 2
• CNc1cccc2c(O)c3c(cc12)C[C@H]1C[C@H]2[C@H](N(C)C)C(O)=C(C(N)=O)C(=O)[C@@]2(O)C(O)=C1C3=O = 4
• CN(C)c1ccc2c(O)c3c(cc2c1)C[C@H]1C[C@H]2[C@H](N(C)C)C(O)=C(C(N)=O)C(=O)[C@@]2(O)C(O)=C1C3=O = 4
• CCCNCc1ccc2c(OC)c3c(c(O)c2c1)C(=O)C1=C(O)[C@]2(O)C(=O)C(C(N)=O)=C(O)[C@@H](N(C)C)[C@@H]2C[C@@H]1C3 = 2
• CCCNCc1ccc2cc3c(c(O)c2c1)C(=O)C1=C(O)[C@]2(O)C(=O)C(C(N)=O)=C(O)[C@@H](N(C)C)[C@@H]2C[C@@H]1C3 = 4
• CN(C)Cc1ccc2cc3c(c(O)c2c1)C(=O)C1=C(O)[C@]2(O)C(=O)C(C(N)=O)=C(O)[C@@H](N(C)C)[C@@H]2C[C@@H]1C3 = 1
• CN(C)[C@@H]1C(O)=C(C(N)=O)C(=O)[C@@]2(O)C(O)=C3C(=O)c4c(c(F)c5ccc(CN6CCC6)cc5c4O)C[C@H]3C[C@@H]12 = 2
• CCCN(CCC)c1c2c(c(O)c3cc(CN4CCC4)ccc13)C(=O)C1=C(O)[C@]3(O)C(=O)C(C(N)=O)=C(O)[C@@H](N(C)C)[C@@H]3C[C@@H]1C2 = 4
• CN(C)c1cccc2c(O)c3c(cc12)C[C@H]1C[C@H]2[C@H](N(C)C)C(O)=C(C(N)=O)C(=O)[C@@]2(O)C(O)=C1C3=O = 2
• CNCc1ccc2cc3c(c(O)c2c1)C(=O)C1=C(O)[C@]2(O)C(=O)C(C(N)=O)=C(O)[C@@H](N(C)C)[C@@H]2C[C@@H]1C3 = 4
• CNCc1ccc2c(N(C)C)c3c(c(O)c2c1)C(=O)C1=C(O)[C@]2(O)C(=O)C(C(N)=O)=C(O)[C@@H](N(C)C)[C@@H]2C[C@@H]1C3 = 4
• CCN(C)Cc1ccc2cc3c(c(O)c2c1)C(=O)C1=C(O)[C@]2(O)C(=O)C(C(N)=O)=C(O)[C@@H](N(C)C)[C@@H]2C[C@@H]1C3 = 4
• CN(C)Cc1cccc2c(O)c3c(cc12)C[C@H]1C[C@H]2[C@H](N(C)C)C(O)=C(C(N)=O)C(=O)[C@@]2(O)C(O)=C1C3=O = 32
• CN(Cc1ccc2cc3c(c(O)c2c1)C(=O)C1=C(O)[C@]2(O)C(=O)C(C(N)=O)=C(O)[C@@H](N(C)C)[C@@H]2C[C@@H]1C3)c1ccccc1 = 4
• CC(C)Oc1c2c(c(O)c3cc(CN4CCC4)ccc13)C(=O)C1=C(O)[C@]3(O)C(=O)C(C(N)=O)=C(O)[C@@H](N(C)C)[C@@H]3C[C@@H]1C2 = 4
• CN(C)[C@@H]1C(O)=C(C(N)=O)C(=O)[C@@]2(O)C(O)=C3C(=O)c4c(c(F)c5ccc(CNC6CC6)cc5c4O)C[C@H]3C[C@@H]12 = 2
